B1: glmS ribozyme (parent)
chain: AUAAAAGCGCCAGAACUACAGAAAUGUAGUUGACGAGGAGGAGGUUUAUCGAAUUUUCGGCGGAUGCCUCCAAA

Variants of: B1
Assay: self-cleavage kobs at 40 uM GlcN6P; higher = faster cleavage; RNA array
Settings: with glucosamine-6-phosphate
This sample holds only a part of the variants without activity.
quantity: self-cleavage kobs at 40 uM GlcN6P (s⁻¹)
Output spec: scalar in s⁻¹, unitless text.

self-cleavage kobs at 40 uM GlcN6P reading for U46G U65G : 4.1e-05

// self-cleavage kobs at 40 uM GlcN6P lookup, variant = A14G A53U C71G , result: 0.000153

Recorded result, U45G U54A , self-cleavage kobs at 40 uM GlcN6P: 0.000294

self-cleavage kobs at 40 uM GlcN6P measured on A14G G32U = 4.82e-05

Lab note: measured self-cleavage kobs at 40 uM GlcN6P of A14C U31G U47G was 0.00012
